Answer each item with its documented pEC50.
Tested on: squamous metoplasia and keratinization in organ cultures of trachea derived from vitamin A-deficient hamsters
Assay: inhibition of squamous metaplasia and keratinization (reversal of keratinization) in tracheal organ cultures
Type: cell-based, hamster
Conditions: Mesocricetus auratus; median effective dose: dose required for reversal of keratinization of 50% of the explants, by probit analysis; hamster trachea organ culture; read-out: Reversal of Keratinization ED50
Notebook: values listed as pEC50 are -log10 of the concentration (mol/L).

INPUT: Can you share its pEC50? I mean this molecule: CC1=C(/C=C/C(C)=C/C=C/C(C)=C/C(=O)OCc2cccc3c2N2C(=O)[C@@H](NC(=O)Cc4ccccc4)[C@H]2CO3)C(C)(C)CCC1 (relative stereo)
OUTPUT: 9.41

INPUT: Another molecule: CC1=C(/C=C/C(C)=C/C=C/C(C)=C/C(=O)OCc2ccccc2N2C(=O)[C@@H](N=[N+]=[N-])[C@H]2/C=C/c2ccccc2)C(C)(C)CCC1 (relative stereo)
OUTPUT: 9.39

INPUT: Another molecule: CC1=C(/C=C/C(C)=C/C=C/C(C)=C/C(=O)OC(C(=O)c2ccccn2)c2ccccn2)C(C)(C)CCC1 (stereo not shown)
OUTPUT: 9.51

INPUT: Another molecule: CC1=C(/C=C/C(C)=C/C=C/C(C)=C/C(=O)OCc2ccccc2N2C(=O)[C@@H](NC(=O)Cc3ccccc3)[C@H]2/C=C/c2ccccc2)C(C)(C)CCC1 (relative stereo)
OUTPUT: 9.70
